Tested on: NCI-H1341 complex spheroids, percent test/control
Experiment: Anticancer human tumor NCI-H1341 cell line growth inhibition [AhR]; active means viability on the fitted dose curve at most 10% of control; inactive means the rest;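 further: spheroids exposed to agents for seven days before readout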
Conditions: second compound 0.316 µM; first compound 3.16 µM
Description: Multicellular complex tumor spheroid response to aryl hydrocarbon receptor antagonists in combination with a variety of drugs and investigational agents in selected tumor cell lines […] Compounds. […] If the clinical Cmax for an agent had not been determined, the highest concentration tested was 10 microM (Table 1). […]
// classify into true (1) for active, false (0) for inactive

Solved entries (count: 2):
Compound | Discrete label
NS(=O)(=O)OCC1CC(n2ccc3c(NC4CCc5ccccc54)ncnc32)CC1O (stereo not drawn) + Cc1cncc(-c2nc(NCCc3c[nH]c4ccccc34)c3ncn(C(C)C)c3n2)c1 | false (0)
NS(=O)(=O)OCC1CC(n2ccc3c(NC4CCc5ccccc54)ncnc32)CC1O (stereo not drawn) + CC(CO)NC(=O)c1cc(-c2ccc(Cl)cc2)nn(-c2cnn(C)c2)c1=O | true (1)

# input for lookup
Entry O=C(C=Cc1cccc(S(=O)(=O)Nc2ccccc2)c1)NO + Cc1ccccc1N=Nc1ccc(NC(=O)c2ccnn2C)c(C)c1 : call = ? true (1)
